Please go through the items and note down their EC50.
- target: Phosphorylation of Y223 of BTK (Homo sapiens)
- Construct: host or cells: healthy human whole blood, 3 donors
- Sequence (Q06187 whole entry): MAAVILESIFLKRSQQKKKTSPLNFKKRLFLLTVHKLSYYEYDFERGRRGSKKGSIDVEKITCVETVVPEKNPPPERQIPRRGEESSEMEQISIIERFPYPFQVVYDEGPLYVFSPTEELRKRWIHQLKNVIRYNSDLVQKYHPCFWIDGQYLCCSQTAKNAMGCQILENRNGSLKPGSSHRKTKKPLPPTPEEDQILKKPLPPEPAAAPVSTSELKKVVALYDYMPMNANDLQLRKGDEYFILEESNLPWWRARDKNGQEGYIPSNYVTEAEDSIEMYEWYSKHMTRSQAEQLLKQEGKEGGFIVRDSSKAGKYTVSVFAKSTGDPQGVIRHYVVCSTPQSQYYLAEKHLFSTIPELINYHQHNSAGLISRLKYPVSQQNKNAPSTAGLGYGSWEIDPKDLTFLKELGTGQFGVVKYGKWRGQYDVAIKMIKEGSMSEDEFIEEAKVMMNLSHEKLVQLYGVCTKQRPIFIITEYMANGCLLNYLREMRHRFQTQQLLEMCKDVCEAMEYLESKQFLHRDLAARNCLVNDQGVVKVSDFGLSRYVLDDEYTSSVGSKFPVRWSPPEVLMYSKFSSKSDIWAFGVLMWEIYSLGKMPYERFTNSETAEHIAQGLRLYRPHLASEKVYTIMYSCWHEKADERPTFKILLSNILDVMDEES
- assay remarks: Whole blood compound screening, phosphorylation of Y223 site of BTK (MSD assay)
- Assay type: cell-based
- condition notes: healthy human whole blood, 2 hours at 37° C., 3 separate donors; read-out: WB BTK-pY223 EC50
One number for each entry, in nM.

Answered examples (3):
compound="C=CC(=O)N1CC(N2CCNc3c2nn(-c2ccc(Oc4ccc(F)c(F)c4)cc2)c3C(N)=O)C1 [Example 63]" target="Phosphorylation of Y223 of BTK (Homo sapiens)" uom=nM measurement=19.4
compound="C=CC(=O)N1CC(N2CCNc3c2nn(-c2ccc(Oc4cccc(F)c4)cc2)c3C(N)=O)C1 [Example 62]" target="Phosphorylation of Y223 of BTK (Homo sapiens)" uom=nM measurement=7.75
compound="C=CC(=O)N1CCN([C@@H]2CCNc3c2nn(-c2ccc(Oc4ccc(F)cc4)cc2)c3C(N)=O)CC1 [Example 71]" target="Phosphorylation of Y223 of BTK (Homo sapiens)" uom=nM measurement=279

Request: // EC50 lookup, key: C=CC(=O)N1CCC(C2CCNc3c2nn(-c2ccc(Oc4ccccc4)cc2)c3C(N)=O)CC1 (racemic) [Example 1]
Response: 42.2

Recorded values, source patent US20220213092A1.
